# Target Of Assay: Prostaglandin F2-alpha receptor (Homo sapiens, UniProt P43088)
# Sequence (P43088 whole entry): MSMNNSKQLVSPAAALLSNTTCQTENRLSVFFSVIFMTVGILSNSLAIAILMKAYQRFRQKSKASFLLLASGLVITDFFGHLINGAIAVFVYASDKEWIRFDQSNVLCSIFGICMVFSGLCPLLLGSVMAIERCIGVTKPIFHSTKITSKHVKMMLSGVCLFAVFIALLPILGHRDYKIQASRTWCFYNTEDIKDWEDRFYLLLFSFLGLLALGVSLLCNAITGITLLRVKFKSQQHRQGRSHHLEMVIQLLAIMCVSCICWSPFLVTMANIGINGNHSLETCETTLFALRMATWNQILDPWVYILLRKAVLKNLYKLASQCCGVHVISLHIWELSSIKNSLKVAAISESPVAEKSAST
# Experiment Notes: Agonist activity at human prostaglandin FP receptor expressed in CHO cells assessed as increase in intracellular calcium level by Fura 2-AM dye based fluorescence assay
pEC50: −log10 of the molar value.
Parameter Measured: pEC50

// below: answered compounds
>>> print(df.to_string())
                    structure_smiles_string  parameter_measured  observed_value
0  O=C(O)CCC[C@@H]1CC[C@@H]2[C@@H](/C=C/[C@@H](O)COc3ccccc3)[C@H](O)C[C@@H]2O1               pEC50            8.39
1  O=C(O)CCCC[C@H]1CC[C@@H]2[C@@H](/C=C/[C@@H](O)COc3ccccc3)[C@H](O)C[C@@H]2OC1               pEC50            7.37
2  O=C(O)CCC[C@H]1CC[C@@H]2[C@@H](/C=C/[C@@H](O)COc3ccccc3)[C@H](O)C[C@@H]2O1               pEC50            8.15
3  O=C(O)CCC1=CC[C@@H]2[C@@H](/C=C/[C@@H](O)COc3ccccc3)[C@H](O)C[C@@H]2OC1               pEC50            6.28
4  O=C(O)CCCCC1=CC[C@@H]2[C@@H](/C=C/[C@@H](O)COc3ccccc3)[C@H](O)C[C@@H]2OC1               pEC50            7.14
5  O=C(O)CCC/C=C\C[C@H]1C(=O)C[C@@H](O)[C@@H]1/C=C/[C@@H](O)COc1ccccc1               pEC50            7.80

a. O=C(O)CCC[C@@H]1CC[C@@H]2[C@@H](/C=C/[C@@H](O)COc3ccccc3)[C@H](O)C[C@@H]2OC1
b. O=C(O)CCCC[C@@H]1CC[C@@H]2[C@@H](/C=C/[C@@H](O)COc3ccccc3)[C@H](O)C[C@@H]2OC1
Parameter check: reported pEC50 is higher for which label, a or b ? Answer by quoting the chosen item's label. b
(b: 6.96, a: 6.55)
